# MEASURED TARGET: human Kv 1.3 (human, UniProt P22001 1-575)
# Sequence (P22001 whole entry): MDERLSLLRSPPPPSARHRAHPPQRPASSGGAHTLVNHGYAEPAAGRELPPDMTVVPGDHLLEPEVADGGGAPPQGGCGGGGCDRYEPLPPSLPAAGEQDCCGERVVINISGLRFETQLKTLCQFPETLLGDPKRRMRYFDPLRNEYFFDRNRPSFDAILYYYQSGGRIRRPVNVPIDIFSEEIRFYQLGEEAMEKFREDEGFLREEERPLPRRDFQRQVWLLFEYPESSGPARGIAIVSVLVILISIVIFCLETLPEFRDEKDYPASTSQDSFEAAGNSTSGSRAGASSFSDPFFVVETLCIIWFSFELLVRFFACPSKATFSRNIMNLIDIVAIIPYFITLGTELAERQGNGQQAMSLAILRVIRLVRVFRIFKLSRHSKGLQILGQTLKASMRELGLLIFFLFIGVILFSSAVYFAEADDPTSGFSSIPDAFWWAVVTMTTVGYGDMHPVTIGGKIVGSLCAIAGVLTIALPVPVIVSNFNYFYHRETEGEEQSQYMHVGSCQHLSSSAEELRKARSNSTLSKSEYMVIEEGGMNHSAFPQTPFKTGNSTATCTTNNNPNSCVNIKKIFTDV
# MEASUREMENT PROTOCOL: cell-based or functional assay
MEASUREMENT KIND: IC50 of inhibition of huKv1.3 currents (extrapolated)

QUERY: Reported IC50 of inhibition of huKv1.3 currents (extrapolated) for KB_A07 MoKa-1 (antibody, V domains shown) VH: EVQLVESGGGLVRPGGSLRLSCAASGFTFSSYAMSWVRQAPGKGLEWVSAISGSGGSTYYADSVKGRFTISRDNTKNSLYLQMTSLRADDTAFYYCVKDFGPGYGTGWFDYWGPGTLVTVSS VL: DIQMTQSPSSLSASVGDRVTITCRASQSISSYLNWYQQKPGKAPKLLIYAAGVINVKCSLPQQCIKPCKDAGMRFGKCMNKKCRCYSSRSGVPSRFSGSGSGTDFTLTISSLQPEDFATYYCQQGASPPYTFGQGTKVEIKR : what is it?
RESULT: > 10 µM

QUERY: Also KB_A12 Kaliotoxin (antibody, V domains shown) VH: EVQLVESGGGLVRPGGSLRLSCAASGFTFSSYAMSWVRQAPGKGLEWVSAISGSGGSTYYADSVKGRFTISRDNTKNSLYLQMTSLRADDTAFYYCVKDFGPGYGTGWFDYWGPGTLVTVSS VL: QSVLTQPPSVSEAPRQRVTITCSGSSSNIGNNAVNWYQQLPGKAPKLLIYAAGRGVEINVKCSGSPQCLKPCKDAGMRFGKCMNRKCHCTPKANSGVSDRFSAAKSGTSASLAINGLRSEDEADYYCAAWDDSLNGYVFGTGTKLTVLG ?
RESULT: > 10 µM

Attribution: patent US11932673
